Assay: NCI Yeast Anticancer Drug Screen. Data for the rad50 strain (AID 155);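 also: 0% = growth of vehicle-only cultures of the same strain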
Settings: S. cerevisiae rad50 strain growth inhibition; at 50.0 µM; active compounds read high
Compounds without any hit were thinned out: in the full panel of roughly 79,000, 15% have a hit.
Overview of reported growth inhibition across a group of molecules:
Report as a plain number; the unit % is understood.

Consider the reported growth inhibition for these molecules:
COCN(COC)c1nc(CCC(Br)(Br)Br)nc(N(COC)COC)n1 : 36.5
CCCCc1c2c(nn1C(C)=O)C(=O)C=C(Nc1ccccc1)C2=O : 21.8
C1CCCCC/C2=C(\CCCC1)CSCCCS2 : -25.8
CC1(c2ccncc2)NC(=O)NC1=O (stereo not drawn) : 31.9
CCOC(=O)C(CC(Nc1ccccc1)(c1ccccc1)c1ccccc1)c1ccccc1 (stereo not drawn) : 21.9
CN(C)Cc1cc(C(=O)/C=C/c2ccc(Cl)cc2)cc(CN(C)C)c1O : -27.6

Given the entry "C[CH2][Sn]([CH2]C)([O]C(=O)c1ccc(F)cc1)[O][Sn]([CH2]C)([CH2]C)[O]C(=O)c1ccc(F)cc1" , report its measured growth inhibition.
-7.3

Given the entry "CCCC(=O)/C=C\c1ccccc1" , report its measured growth inhibition.
21.6

###

Test: NCI Yeast Anticancer Drug Screen. Data for the mec2-1 strain (AID 157)
Details: S. cerevisiae mec2-1 strain, at 50.0 µM, active compounds read high
Compounds without any hit were thinned out: in the full panel of roughly 79,000, 15% have a hit.
Overview of reported growth inhibition across a group of molecules:
Report as a plain number; the unit % is understood.

Consider the reported growth inhibition for these molecules:
O=C(/C=C/c1ccccc1O)c1ccccc1 : -15.7
S=c1c2ccccc2c(=S)n2n1CC=CC2 : 6.95
Cc1cc(Cl)nc2ccc(Cc3ccc(Cl)cc3)cc12 : -2.65

Given the entry "c1cncc([O][Ge]([O]c2cccnc2)([O]c2cccnc2)[O]c2cccnc2)c1" , report its measured growth inhibition.
15.8

Given the entry "COc1ccccc1NC(=O)NCCN1CCCC1" , report its measured growth inhibition.
8.1

Given the entry CC1=C(C(=O)OC2CC3CCC2(C)C3(C)C)C2Nc3ccccc3N(C)C2O1 (centres undefined) , report its measured growth inhibition.
-8.8

Given the entry "Cc1ccc(S(=O)(=O)N=Nc2c(O)[nH]c3c(Cl)cc(Cl)cc23)cc1" , report its measured growth inhibition.
-18.8

Given the entry "CCOC(=O)c1nn2c(nc1=O)sc1ccc3ccccc3c12" , report its measured growth inhibition.
-5.7

Given the entry CCCCCCCCCCCC(=O)N(CCCCCCCCCCC(=O)O)CC(O)C(O)C(OC1OC(CO)C(O)C(O)C1O)C(O)CO (centres undefined) , report its measured growth inhibition.
12.8

###

Assay: NCI Yeast Anticancer Drug Screen. Data for the sgs1 mgt1 strain (AID 161);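 also: 0% = growth of cultures given vehicle only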
Conditions: S. cerevisiae sgs1 mgt1 strain, at 50.0 µM, active compounds read high
The panel holds about 79,000 compounds, 15% with a hit somewhere; the sample as a whole holds those more often.
property_label: growth inhibition (%)
Report as a plain number; the unit % is understood.

Cc1cccc(N=NC2Sc3nc4ccccc4n3C2=O)c1 (stereo unspecified) : -20.1
Nc1ccc(N)c(Cl)c1 : -19.8
CC(C)(C)/C=C/N1N=NC(c2ccccc2)(c2ccccc2)C1=O : 23.1
O=Cc1ccc(-c2ccc(S(=O)(=O)O)cc2)o1 : -41.3
CCOC(=O)NN(C(=O)OCC)C(C(=O)c1ccccc1)N(NC(=O)OCC)C(=O)OCC : 16.9
CC(=O)OCC1CC=CCC1C (stereo unspecified) : -10.2

Consider the record given below.
Given the entry "CCN(CC)CCn1ncc2ccc3c(c(=O)c4cccnc4n3CCN(CC)CC)c21" , report its measured growth inhibition.
13.2

###

Assay: NCI Yeast Anticancer Drug Screen. Data for the sgs1 mgt1 strain (AID 161);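 also: 0% = growth of cultures given vehicle only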
Conditions: S. cerevisiae sgs1 mgt1 strain, at 50.0 µM, active compounds read high
Procedure: Growth inhibition of yeast strains with defined genetic alterations is measured as a screen for potential anti-cancer activity. Selected strains with alterations in DNA damage repair or cell cycle control were exposed to compounds and growth inhibition was measured relative to vehicle treated controls. The strain used in this assay is sgs1 mgt1
Compounds without any hit were thinned out: in the full panel of roughly 79,000, 15% have a hit.
property_label: growth inhibition (%)
Report as a plain number; the unit % is understood.

COc1cc(C)cc2c1C(=O)C(Br)=CC2=O : 91.9
CN(C)c1ccc(/C=N\NC(=S)NN2CCN(NC(=S)N/N=C\c3ccc(N(C)C)cc3)CC2)cc1 : 5.2
CCc1ccccc1NC(=O)C1=C(C)NC(C)=C(C(=O)Nc2ccccc2CC)C1c1ccc(NC(C)=O)cc1 : 3.25
Nc1cc(C(=O)O)ccc1Cl : -18.9
CN1C(=O)CC2(C)c3cc(O)cc(Br)c3N(C)C12 (stereo not drawn) : 8.45
COc1ccc(/C=C2\NC(=O)NC2=O)cc1Br : 2.65
NC(=O)c1nc2ccccc2nc1Nc1ccc(Cl)cc1Cl : 7.55
NCC1CCC(C(=O)O)CC1 (stereo not drawn) : -10

Given the entry "O=C(Cn1c(=O)oc2ccc(C(=O)c3cccc(Cl)c3)cc21)c1ccccc1" , report its measured growth inhibition.
-20.6

Given the entry "CCCCCCCCCCCCSCCO" , report its measured growth inhibition.
39

Given the entry "CCCCOC(=O)NC(=O)c1cn(CCCOC(=O)CCCCCCCCC(=O)OCCCn2cc(C(=O)NC(=O)OCCCC)c(=O)[nH]c2=O)c(=O)[nH]c1=O" , report its measured growth inhibition.
-32.8

Given the entry "O=S(=O)([O-])c1ccc2c(c1)-c1nc-2nc2[n-]c(nc3nc(nc4[n-]c(n1)c1ccc(S(=O)(=O)[O-])cc41)-c1cc(S(=O)(=O)[O-])ccc1-3)c1ccc(S(=O)(=O)[O-])cc21.[Cu+2].[Na+]" , report its measured growth inhibition.
-23.8

Given the entry "CN(C)CCC(=O)c1ccc(C(=O)CCN(C)C)cc1" , report its measured growth inhibition.
-17.1

Given the entry "Cc1ccc(N=Cc2ccccc2O)cc1.[Co]" , report its measured growth inhibition.
-2.75

###

Experiment: NCI Yeast Anticancer Drug Screen. Data for the bub3 strain (AID 167)
Conditions: S. cerevisiae bub3 mutant strain, at 50.0 µM, active compounds read high
The panel holds about 79,000 compounds, 15% with a hit somewhere; the sample as a whole holds those more often.
property_label: growth inhibition (%)
Report as a plain number; the unit % is understood.

Consider the reported growth inhibition for these compounds:
Cc1nc(Nc2ccccc2)sc1C(=O)CC(=O)C(=O)NC12CC3CC(CC(C3)C1)C2 : 4.4
N#Cc1nc(-c2ccccc2)c(-c2ccccc2)nc1C#N : 13.9
NC1c2c(Br)sc(N3CCCC3)c2C(=O)C1O (centres undefined) : -16.4
CC[C@@H]1CN(C)[C@H]2Cc3c([nH]c4ccccc34)C(=O)C[C@H]1C2C(=O)OC (some centres undefined) : -26.2
CCOC(=O)Cc1c(Cc2[nH]c(C(=O)OCc3ccccc3)c(CC(=O)OCC)c2CC(=O)OCC)[nH]c(C(=O)OCc2ccccc2)c1CC(=O)OCC : -3.35

Given the entry "CNc1nc(=S)nc(-c2ccccc2)s1" , report its measured growth inhibition.
11.8

Given the entry "COC(=O)c1ccc(O)c(CN(C)C)c1" , report its measured growth inhibition.
-15.1

###

Assay: NCI Yeast Anticancer Drug Screen. Data for the mlh1 rad18 strain (AID 175)
Details: S. cerevisiae mlh1 rad18 strain growth inhibition; at 50.0 µM
The panel holds about 79,000 compounds, 15% with a hit somewhere; the sample as a whole holds those more often. Activity calls are given as the source filed them. Rule as the data show it: active = growth inhibition above about 70%; inactive = the rest.
Respond using exactly one of the listed classes: y = active, n = inactive

# example entries with known answers
CC(=O)/C=C/N(C)c1ccc(O)cc1 : n
S=C=Nc1ccc(CSc2nc3ccccc3[nH]2)cc1 : n
CCN(CC)CCNc1cc(OC)c(N)c2cccnc12 : n
CC1=CC(=O)C2CC1C2(C)C (centres undefined) : n
Nc1c(S(=O)(=O)O)ccc2c1C(=O)c1ccccc1C2=O : n
COc1ccc(C(=O)c2ccc(C)c3c(C)cccc23)cc1 : n
CC(=O)OCc1c(COC(C)=O)c(-c2ccc(Cl)c(Cl)c2)n2c1CCC2 : n
O=[N+]([O-])c1ccc(CS(=O)(=O)O)cc1 : n

Per the assay record, what outcome was assigned to "CC(=O)Nc1ccc(N(C)C)cc1Cl" ?
n

###

Test: NCI Yeast Anticancer Drug Screen. Data for the rad50 strain (AID 155);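 also: 0% = growth of vehicle-only cultures of the same strain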
Settings: S. cerevisiae rad50 strain growth inhibition; at 50.0 µM; active compounds read high
This is part of a sample that, as a whole, favours compounds with a hit. Of some 79,000 tested, about 15% had one in any assay.
property_label: growth inhibition (%)
Report as a plain number; the unit % is understood.

Consider the reported growth inhibition for these compounds:
COc1cccc(C(=O)NCCNCCNC(=O)c2cccc(OC)c2OC)c1OC : -0.8
CNCCCC1c2ccccc2C=Cc2ccccc21 : 5.5
O=c1nc2n(cc1F)C1OC(CCl)C(O)C1O2 (centres undefined) : 8.55
COc1ccc(-c2nc(N)nc(-c3cc(C)ccc3O)c2Cl)cc1 : 12.7
CC1=CC(OC2CCCCO2)CC(C)(C)C1 (centres undefined) : -5.2

Consider the record given below.
Given the entry "c1ccc(C2(c3ccccc3)Oc3ccccc3O2)cc1" , report its measured growth inhibition.
-10.1
